TESTED ON: T1, FZD9 cysteine-rich domain (CRD), MYC-tagged and GPI-anchored on CHO cells (human, UniProt O00144 35-161, GPI anchor)
T1 construct: also called FZD9 CRD; CHO-myc-FZDGPI; not shown: MYC tag and GPI anchor signal
T1 sequence: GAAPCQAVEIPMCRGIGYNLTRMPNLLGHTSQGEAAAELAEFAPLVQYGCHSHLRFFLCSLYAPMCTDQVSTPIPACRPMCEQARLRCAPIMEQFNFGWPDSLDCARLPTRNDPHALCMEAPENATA
ASSAY REMARKS: flow cytometry, CHO-CRD cells;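 also: flow cytometry of Fab binding to CHO cells overexpressing a Frizzled CRD, with binding defined as median fluorescence over twice that of CHO cells lacking any Frizzled CRD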
// reported median fluorescence for each item listed
Lab note: jot the number down without any unit.

Fab-2932 (Fab, V domains shown, Fab; also called Fv-2932) VH: EVQLVESGGGLVQPGGSLRLSCAASGFNISYSYMHWVRQAPGKGLEWVASIYSSYSSTSYADSVKGRFTISADTSKNTAYLQMNSLRAEDTAVYYCARGALDYWGQGTLVTVSS VL: DIQMTQSPSSLSASVGDRVTITCRASQSVSSAVAWYQQKPGKAPKLLIYSASSLYSGVPSRFSGSRSGTDFTLTISSLQPEDFATYYCQQWYGSFALITFGQGTKVEIK | 3.62
Fab-2898 (Fab, V domains shown, Fab; also called Fv-2898) VH: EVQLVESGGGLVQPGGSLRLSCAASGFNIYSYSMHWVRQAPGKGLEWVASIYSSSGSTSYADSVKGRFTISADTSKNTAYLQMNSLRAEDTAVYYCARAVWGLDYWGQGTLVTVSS VL: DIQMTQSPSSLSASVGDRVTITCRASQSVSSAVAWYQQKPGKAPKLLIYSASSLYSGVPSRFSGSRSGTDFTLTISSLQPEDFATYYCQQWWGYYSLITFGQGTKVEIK | 4.57

(Q) Give its median fluorescence value. Item: Fab-2915 (Fab, V domains shown, Fab; also called Fv-2915) VH: EVQLVESGGGLVQPGGSLRLSCAASGFNIYYYSMHWVRQAPGKGLEWVASIYSSYGYTSYADSVKGRFTISADTSKNTAYLQMNSLRAEDTAVYYCARGYHYYPYYSGLDYWGQGTLVTVSS VL: DIQMTQSPSSLSASVGDRVTITCRASQSVSSAVAWYQQKPGKAPKLLIYSASSLYSGVPSRFSGSRSGTDFTLTISSLQPEDFATYYCQQAYYHSLITFGQGTKVEIK
(A) 3.92
